- system-name: panel of 203 kinases (Homo sapiens, UniProt P54764)
- Construct: purchased DiscoverX (KINOMEscan)
- Sequence (P54764 20-986): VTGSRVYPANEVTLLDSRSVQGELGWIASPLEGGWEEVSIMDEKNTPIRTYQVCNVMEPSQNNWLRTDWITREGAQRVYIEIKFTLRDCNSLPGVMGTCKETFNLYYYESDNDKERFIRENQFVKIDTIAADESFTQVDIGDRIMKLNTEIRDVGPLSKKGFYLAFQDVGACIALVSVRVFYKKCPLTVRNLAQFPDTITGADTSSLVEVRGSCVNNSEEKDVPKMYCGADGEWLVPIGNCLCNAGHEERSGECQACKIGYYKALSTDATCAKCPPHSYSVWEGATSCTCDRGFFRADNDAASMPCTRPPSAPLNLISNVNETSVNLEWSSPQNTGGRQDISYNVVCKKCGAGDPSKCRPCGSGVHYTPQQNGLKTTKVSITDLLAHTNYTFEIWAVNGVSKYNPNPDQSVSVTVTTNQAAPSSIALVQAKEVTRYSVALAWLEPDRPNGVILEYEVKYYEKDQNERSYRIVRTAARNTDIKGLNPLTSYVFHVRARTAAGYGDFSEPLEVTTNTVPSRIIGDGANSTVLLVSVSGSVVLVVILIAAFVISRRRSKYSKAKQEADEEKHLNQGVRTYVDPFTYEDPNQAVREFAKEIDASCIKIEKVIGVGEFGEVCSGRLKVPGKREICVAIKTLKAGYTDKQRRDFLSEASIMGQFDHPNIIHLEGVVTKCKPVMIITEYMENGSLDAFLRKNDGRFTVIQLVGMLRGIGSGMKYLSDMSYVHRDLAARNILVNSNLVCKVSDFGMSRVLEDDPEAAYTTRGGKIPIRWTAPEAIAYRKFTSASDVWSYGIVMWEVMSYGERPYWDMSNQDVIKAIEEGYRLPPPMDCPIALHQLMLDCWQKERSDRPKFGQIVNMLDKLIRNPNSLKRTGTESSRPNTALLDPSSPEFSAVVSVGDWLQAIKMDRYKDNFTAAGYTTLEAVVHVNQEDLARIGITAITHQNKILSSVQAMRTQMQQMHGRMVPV
- assay-details: KINOMEscan competitive binding, whole panel
- study-conditions: 10 µM, n=1; kinase EPHA4; read-out: Percent inhibition EPHA4
Entries and their inhibition at 10 µM

{"molecule": "CN1CCN(c2ccc(Nc3nccc(-c4cnn5ncccc45)n3)cc2C#N)CC1 [Compound 1]", "uom": "%", "inhibition at 10 µM": 0}
{"molecule": "Fc1cccc(COc2ccc(Nc3ncnc4c3CN(CCN3CCOCC3)CC4)cc2Cl)c1 [Compound 6]", "uom": "%", "inhibition at 10 µM": 0}
{"molecule": "c1ccc(COc2cccc(-c3ccnc4[nH]ccc34)c2)cc1 [Compound 9]", "uom": "%", "inhibition at 10 µM": 0}
{"molecule": "Nc1ncc2c(-c3ccncc3)c[nH]c2n1 [Compound 11]", "uom": "%", "inhibition at 10 µM": 0}

###

- system-name: panel of 203 kinases (Homo sapiens)
- Construct: purchased DiscoverX (KINOMEscan)
- Sequence (P51813 1-675): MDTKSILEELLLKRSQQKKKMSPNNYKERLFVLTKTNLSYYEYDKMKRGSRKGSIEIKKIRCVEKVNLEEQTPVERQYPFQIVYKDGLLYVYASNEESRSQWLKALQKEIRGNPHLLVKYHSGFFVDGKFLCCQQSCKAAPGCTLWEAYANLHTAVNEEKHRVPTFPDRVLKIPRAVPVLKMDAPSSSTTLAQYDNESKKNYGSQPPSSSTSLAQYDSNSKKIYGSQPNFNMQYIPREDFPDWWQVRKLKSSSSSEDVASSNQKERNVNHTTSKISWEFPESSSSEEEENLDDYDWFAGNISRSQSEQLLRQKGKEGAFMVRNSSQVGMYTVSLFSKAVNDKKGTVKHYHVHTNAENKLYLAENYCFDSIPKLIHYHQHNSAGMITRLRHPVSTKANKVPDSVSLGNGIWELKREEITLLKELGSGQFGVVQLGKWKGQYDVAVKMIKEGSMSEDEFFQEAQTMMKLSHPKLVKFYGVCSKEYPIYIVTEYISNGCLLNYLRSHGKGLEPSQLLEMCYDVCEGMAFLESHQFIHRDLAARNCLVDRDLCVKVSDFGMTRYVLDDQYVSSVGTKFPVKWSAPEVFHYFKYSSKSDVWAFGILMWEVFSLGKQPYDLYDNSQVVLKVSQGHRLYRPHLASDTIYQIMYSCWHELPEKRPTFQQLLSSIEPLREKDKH
- assay-details: KINOMEscan competitive binding, whole panel
- study-conditions: 10 µM, n=1; kinase BMX; read-out: Percent inhibition BMX
observation-type: inhibition at 10 µM (%)

{"compound-structure-string": "COc1ccc(Nc2nccc(-c3cnn4ncccc34)n2)cc1", "system-name": "panel of 203 kinases (Homo sapiens)", "quantitative-result": 0}
{"compound-structure-string": "CN1CCN(c2ccc(Nc3nccc(-c4cnn5ncccc45)n3)cc2C#N)CC1", "system-name": "panel of 203 kinases (Homo sapiens)", "quantitative-result": 0}
{"compound-structure-string": "Clc1ccc(Nc2ncc(-c3ccccc3)s2)cc1", "system-name": "panel of 203 kinases (Homo sapiens)", "quantitative-result": 0}

###

- system-name: TYRO3 (Homo sapiens, UniProt Q06418)
- Construct: purchased DiscoverX (KINOMEscan)
- Sequence (Q06418 41-890): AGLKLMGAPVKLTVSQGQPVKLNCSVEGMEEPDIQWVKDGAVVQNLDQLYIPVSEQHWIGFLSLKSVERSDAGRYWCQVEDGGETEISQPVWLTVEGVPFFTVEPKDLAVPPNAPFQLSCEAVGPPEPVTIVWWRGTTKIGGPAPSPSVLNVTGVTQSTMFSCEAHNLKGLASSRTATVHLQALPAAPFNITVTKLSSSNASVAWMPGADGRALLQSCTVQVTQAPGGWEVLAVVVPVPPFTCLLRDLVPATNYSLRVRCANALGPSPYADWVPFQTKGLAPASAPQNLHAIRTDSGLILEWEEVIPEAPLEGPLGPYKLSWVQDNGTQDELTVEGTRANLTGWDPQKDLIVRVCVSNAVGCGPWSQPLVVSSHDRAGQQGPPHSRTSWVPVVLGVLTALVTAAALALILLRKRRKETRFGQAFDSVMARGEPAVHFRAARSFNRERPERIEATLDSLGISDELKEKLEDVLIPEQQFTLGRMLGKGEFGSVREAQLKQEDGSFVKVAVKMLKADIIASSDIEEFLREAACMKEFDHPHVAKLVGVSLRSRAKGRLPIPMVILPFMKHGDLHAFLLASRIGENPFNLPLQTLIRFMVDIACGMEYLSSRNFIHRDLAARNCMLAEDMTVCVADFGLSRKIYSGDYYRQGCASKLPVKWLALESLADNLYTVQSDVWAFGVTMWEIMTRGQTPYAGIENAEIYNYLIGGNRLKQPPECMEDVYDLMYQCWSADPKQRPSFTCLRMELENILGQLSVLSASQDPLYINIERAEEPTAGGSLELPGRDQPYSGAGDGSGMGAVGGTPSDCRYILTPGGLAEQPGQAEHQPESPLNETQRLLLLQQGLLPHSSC
- assay-details: KINOMEscan competitive binding
- study-conditions: n=1, read-out: Percent inhibition, TYRO3

{"compound-structure-string": "CN1CCN(c2ccc(Nc3nccc(-c4cnn5ncccc45)n3)cc2C#N)CC1", "system-name": "TYRO3 (Homo sapiens, UniProt Q06418)", "inhibition at 10 µM / %": 70.2}
{"compound-structure-string": "Nc1ncc2c(-c3ccncc3)c[nH]c2n1", "system-name": "TYRO3 (Homo sapiens, UniProt Q06418)", "inhibition at 10 µM / %": 0}
{"compound-structure-string": "Clc1ccc(Nc2ncc(-c3ccccc3)s2)cc1", "system-name": "TYRO3 (Homo sapiens, UniProt Q06418)", "inhibition at 10 µM / %": 0}
{"compound-structure-string": "C[C@@H](Oc1cc(-c2cnc3ccccn23)sc1C(N)=O)c1ccccc1Cl", "system-name": "TYRO3 (Homo sapiens, UniProt Q06418)", "inhibition at 10 µM / %": 0}
{"compound-structure-string": "COc1ccc(Nc2nccc(-c3cnn4ncccc34)n2)cc1", "system-name": "TYRO3 (Homo sapiens, UniProt Q06418)", "inhibition at 10 µM / %": 0}

###

- system-name: JAK kinase domains (Homo sapiens)
- Construct: purchased DiscoverX (KINOMEscan)
- Sequence (O60674 840-1132): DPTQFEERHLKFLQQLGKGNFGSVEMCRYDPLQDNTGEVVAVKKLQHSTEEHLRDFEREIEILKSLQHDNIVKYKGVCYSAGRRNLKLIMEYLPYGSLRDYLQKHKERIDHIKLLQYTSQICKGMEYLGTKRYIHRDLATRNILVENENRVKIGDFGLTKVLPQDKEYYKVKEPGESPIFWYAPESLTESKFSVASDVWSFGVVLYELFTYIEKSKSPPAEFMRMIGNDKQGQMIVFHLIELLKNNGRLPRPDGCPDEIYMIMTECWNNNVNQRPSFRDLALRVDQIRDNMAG
- assay-details: KINOMEscan competitive binding
- study-conditions: 10 µM, n=1; kinase JAK2(Kin.Dom.2); read-out: Percent inhibition JAK2(Kin.Dom.2)
observation-type: inhibition at 10 µM (%)

{"compound-structure-string": "c1ccc(COc2cccc(-c3ccnc4[nH]ccc34)c2)cc1", "system-name": "JAK kinase domains (Homo sapiens)", "observation-type": "inhibition at 10 µM", "quantitative-result": 0}
{"compound-structure-string": "COc1ccc(Nc2nccc(-c3cnn4ncccc34)n2)cc1", "system-name": "JAK kinase domains (Homo sapiens)", "observation-type": "inhibition at 10 µM", "quantitative-result": 89.7}
{"compound-structure-string": "Clc1ccc(Nc2ncc(-c3ccccc3)s2)cc1", "system-name": "JAK kinase domains (Homo sapiens)", "observation-type": "inhibition at 10 µM", "quantitative-result": 0}
{"compound-structure-string": "CN1CCN(c2ccc(Nc3nccc(-c4cnn5ncccc45)n3)cc2C#N)CC1", "system-name": "JAK kinase domains (Homo sapiens)", "observation-type": "inhibition at 10 µM", "quantitative-result": 86.8}
{"compound-structure-string": "Cc1ccc(O)cc1Nc1ccnc(Nc2cccc(C(N)=O)c2)n1", "system-name": "JAK kinase domains (Homo sapiens)", "observation-type": "inhibition at 10 µM", "quantitative-result": 80.6}

###

Parameter: inhibition at 10 µM. Scope: all listed entries.
- system-name: STK33 (Homo sapiens)
- Construct: purchased DiscoverX (KINOMEscan)
- Sequence (Q9BYT3 whole entry): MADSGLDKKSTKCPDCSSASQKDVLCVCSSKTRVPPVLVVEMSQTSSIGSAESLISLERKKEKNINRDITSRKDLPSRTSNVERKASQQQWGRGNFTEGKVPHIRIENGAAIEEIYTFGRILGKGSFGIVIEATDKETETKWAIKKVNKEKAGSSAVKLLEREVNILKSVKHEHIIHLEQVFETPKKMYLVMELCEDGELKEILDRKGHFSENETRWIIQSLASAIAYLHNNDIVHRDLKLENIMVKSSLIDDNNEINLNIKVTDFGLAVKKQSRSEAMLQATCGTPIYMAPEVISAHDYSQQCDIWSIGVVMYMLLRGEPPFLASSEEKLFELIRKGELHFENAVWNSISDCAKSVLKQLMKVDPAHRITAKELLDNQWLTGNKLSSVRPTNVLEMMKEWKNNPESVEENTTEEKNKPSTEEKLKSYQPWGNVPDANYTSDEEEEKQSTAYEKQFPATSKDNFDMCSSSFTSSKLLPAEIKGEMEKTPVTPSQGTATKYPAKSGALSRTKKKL
- assay-details: KINOMEscan competitive binding
- study-conditions: n=1, read-out: Percent inhibition, STK33
observation-type: inhibition at 10 µM (%)

{"compound-structure-string": "COc1ccc(Nc2nccc(-c3cnn4ncccc34)n2)cc1", "uom": "%", "quantitative-result": 68.9}
{"compound-structure-string": "Clc1ccc(Nc2ncc(-c3ccccc3)s2)cc1", "uom": "%", "quantitative-result": 0}
{"compound-structure-string": "Cc1ccc(O)cc1N(C)c1ccnc(Nc2cccc(S(N)(=O)=O)c2)n1", "uom": "%", "quantitative-result": 85.7}
{"compound-structure-string": "Cc1ccc(O)cc1Nc1ccnc(Nc2cccc(C(N)=O)c2)n1", "uom": "%", "quantitative-result": 89.1}
{"compound-structure-string": "C[C@@H](Oc1cc(-c2cnc3ccccn23)sc1C(N)=O)c1ccccc1Cl", "uom": "%", "quantitative-result": 0}

###

- system-name: CDK5 (Homo sapiens, UniProt Q00535)
- Construct: purchased DiscoverX (KINOMEscan)
- Sequence (Q00535 whole entry): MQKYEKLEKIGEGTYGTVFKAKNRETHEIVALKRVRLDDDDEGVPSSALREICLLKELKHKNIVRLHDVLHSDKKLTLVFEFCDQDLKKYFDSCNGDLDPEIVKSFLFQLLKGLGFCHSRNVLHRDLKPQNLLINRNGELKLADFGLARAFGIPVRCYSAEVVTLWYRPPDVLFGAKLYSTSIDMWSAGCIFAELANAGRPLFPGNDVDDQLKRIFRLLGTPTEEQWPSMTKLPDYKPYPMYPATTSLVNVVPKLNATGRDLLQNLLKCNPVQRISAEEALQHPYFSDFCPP
- assay-details: KINOMEscan competitive binding
- study-conditions: 10 µM, n=1; kinase CDK5; read-out: Percent inhibition CDK5
Listed next: entries and their corresponding inhibition at 10 µM.

{"compound-structure-string": "COc1cc(Nc2nccc(-c3sc(N)nc3-c3cccc(NC(=O)c4c(F)cccc4F)c3)n2)cc(OC)c1OC", "inhibition at 10 µM / %": 0}
{"compound-structure-string": "CN1CCN(c2ccc(Nc3nccc(-c4cnn5ncccc45)n3)cc2C#N)CC1", "inhibition at 10 µM / %": 99.5}
{"compound-structure-string": "C[C@@H](Oc1cc(-c2cnc3ccccn23)sc1C(N)=O)c1ccccc1Cl", "inhibition at 10 µM / %": 0}
{"compound-structure-string": "Nc1ncc2c(-c3ccncc3)c[nH]c2n1", "inhibition at 10 µM / %": 0}
{"compound-structure-string": "c1ccc(COc2cccc(-c3ccnc4[nH]ccc34)c2)cc1", "inhibition at 10 µM / %": 0}
